Experiment: Human HepG2 cell viability assay in 384 well format
Format: toxicity, cell-based
Design: dose 125 nL, time 70.5 hour; concentration not given beside the values
Details: HepG2 cells, read-out: Inhibition
Can you tell me cytotoxicity at 70.5 h for the items I'm about to list?
Express the result in % but write the number alone.

The molecule listed as `CSCc1cccc(S(=O)(=O)N2CCC(C)CC2)c1` has a reported cytotoxicity at 70.5 h of 8.82

Query CCN(C(=O)C1CC1)C(c1cccnc1)c1ccc2c(c1)CCO2 (stereo not drawn) yields cytotoxicity at 70.5 h of -5.96

Recorded cytotoxicity at 70.5 h (molecule `CS(=O)(=O)N1CCN(c2ccnc(N3CCCC3)n2)CC1` ): -4.19

Recorded cytotoxicity at 70.5 h (molecule O=c1cc(-c2cc(O)cc(CCC3CCCCN3)c2)cc[nH]1 (stereo not drawn) ): -6.48

Reported cytotoxicity at 70.5 h for CC(NC1(CNS(=O)(=O)N(C)C)CCCC1)c1ccccc1 (stereo not drawn) was -13.2

// recorded cytotoxicity at 70.5 h for `CCCc1cc(=O)n(CC(N)=O)c(-n2nc(C)cc2C)n1` : -4.18

Measured cytotoxicity at 70.5 h of `COc1cccc2ccc(N3CCC(O)(C(=O)O)CC3)nc12` : -16.9

Lab note: `CCCc1nnc(NC2CCN(Cc3ccc(F)c(F)c3)CC2)o1` gave cytotoxicity at 70.5 h of -6.56
